- system_name: T1, human CD22-ECD-His protein (human, UniProt P20273 20-687)
- T1 construct: Recombinant, from HEK293E cells; also called hCD22-ECD-His; human CD22-His protein; not shown: His tag
- T1 sequence: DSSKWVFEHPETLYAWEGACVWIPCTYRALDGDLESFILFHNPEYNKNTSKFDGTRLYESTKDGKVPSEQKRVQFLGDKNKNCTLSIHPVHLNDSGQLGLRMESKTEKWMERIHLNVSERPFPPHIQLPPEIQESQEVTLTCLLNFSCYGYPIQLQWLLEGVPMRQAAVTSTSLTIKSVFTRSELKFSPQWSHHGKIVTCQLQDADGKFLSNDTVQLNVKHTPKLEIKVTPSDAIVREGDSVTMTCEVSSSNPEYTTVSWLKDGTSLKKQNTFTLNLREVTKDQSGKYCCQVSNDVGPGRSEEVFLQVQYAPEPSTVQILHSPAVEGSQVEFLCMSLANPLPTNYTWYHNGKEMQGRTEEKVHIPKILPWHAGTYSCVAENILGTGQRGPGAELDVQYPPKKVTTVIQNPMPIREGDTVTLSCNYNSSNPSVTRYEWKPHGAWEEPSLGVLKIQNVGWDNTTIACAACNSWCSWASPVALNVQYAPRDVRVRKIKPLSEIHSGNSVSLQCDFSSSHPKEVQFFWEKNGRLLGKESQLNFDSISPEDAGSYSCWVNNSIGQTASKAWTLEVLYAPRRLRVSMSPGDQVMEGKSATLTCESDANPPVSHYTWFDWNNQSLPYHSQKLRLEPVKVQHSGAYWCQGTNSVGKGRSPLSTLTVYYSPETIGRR
- protocol: SPR (Biacore), antibody captured on Protein A chip, CD22-ECD-His in solution
recorded_endpoint: koff (s⁻¹)
One number for each entry, in s⁻¹.

* F1.245.2 (antibody, human IgG1, kappa, V domains shown, Chimeric IgG1 kappa) VH: EVQLQQSGAELVKPGASVKLSCTGSGFNIKDYYIHWVKQRTEQGLEWMGRIDPEDGETEYAPKFQDEATITSDTSSNTAYLQLSSLTYEDTAVYYCAREAAGYFYRGSSYGYFDVWGTGTTVTVSS VL: DFQMTQTTSFLSASLGDRVTISCSASQDISNYLNWYQQKPDGTVKLLIYYTSSLHSGVPSRFSGSGSGTDYSLTISNLEPEDIATYYCQQYSMLPYTFGGGTKLEMER | 0.00119

Query: Consider the binder F1.161.7 (antibody, human IgG1, kappa, V domains shown, Chimeric IgG1 kappa) VH: QVQLQQPGAELVKPGASVKMSCKASGYTFTSYWISWVKQRPGQGLEWIGDIYPGTGSSNYNEKFKSKATLTVDTSSSTAYMQLSSLTSEDSAVYYCARLKFEGIGYWGQGTTLTVSS VL: QIVLTQSPAIMSASLGEEITLTCSASSSVSYMHWFQQKSGTSPKLLIYSISNLASGVPSRFSGSGSGTFYSLTISSVEAEDAADYYCHQWSSYPWTFGGGTKLEIKR and give its measured koff.
Reply: 0.00118
